Entries annotated with measured pIC50
# measuredTarget: mouse TRPM3α2 (mTRPM3) ion channel (Mus musculus)
# Construct: expressed in transfected cells; host or cells: flip-in HEK293
# Sequence (J9SQF3 1-1709 isoform J9SQF3-12): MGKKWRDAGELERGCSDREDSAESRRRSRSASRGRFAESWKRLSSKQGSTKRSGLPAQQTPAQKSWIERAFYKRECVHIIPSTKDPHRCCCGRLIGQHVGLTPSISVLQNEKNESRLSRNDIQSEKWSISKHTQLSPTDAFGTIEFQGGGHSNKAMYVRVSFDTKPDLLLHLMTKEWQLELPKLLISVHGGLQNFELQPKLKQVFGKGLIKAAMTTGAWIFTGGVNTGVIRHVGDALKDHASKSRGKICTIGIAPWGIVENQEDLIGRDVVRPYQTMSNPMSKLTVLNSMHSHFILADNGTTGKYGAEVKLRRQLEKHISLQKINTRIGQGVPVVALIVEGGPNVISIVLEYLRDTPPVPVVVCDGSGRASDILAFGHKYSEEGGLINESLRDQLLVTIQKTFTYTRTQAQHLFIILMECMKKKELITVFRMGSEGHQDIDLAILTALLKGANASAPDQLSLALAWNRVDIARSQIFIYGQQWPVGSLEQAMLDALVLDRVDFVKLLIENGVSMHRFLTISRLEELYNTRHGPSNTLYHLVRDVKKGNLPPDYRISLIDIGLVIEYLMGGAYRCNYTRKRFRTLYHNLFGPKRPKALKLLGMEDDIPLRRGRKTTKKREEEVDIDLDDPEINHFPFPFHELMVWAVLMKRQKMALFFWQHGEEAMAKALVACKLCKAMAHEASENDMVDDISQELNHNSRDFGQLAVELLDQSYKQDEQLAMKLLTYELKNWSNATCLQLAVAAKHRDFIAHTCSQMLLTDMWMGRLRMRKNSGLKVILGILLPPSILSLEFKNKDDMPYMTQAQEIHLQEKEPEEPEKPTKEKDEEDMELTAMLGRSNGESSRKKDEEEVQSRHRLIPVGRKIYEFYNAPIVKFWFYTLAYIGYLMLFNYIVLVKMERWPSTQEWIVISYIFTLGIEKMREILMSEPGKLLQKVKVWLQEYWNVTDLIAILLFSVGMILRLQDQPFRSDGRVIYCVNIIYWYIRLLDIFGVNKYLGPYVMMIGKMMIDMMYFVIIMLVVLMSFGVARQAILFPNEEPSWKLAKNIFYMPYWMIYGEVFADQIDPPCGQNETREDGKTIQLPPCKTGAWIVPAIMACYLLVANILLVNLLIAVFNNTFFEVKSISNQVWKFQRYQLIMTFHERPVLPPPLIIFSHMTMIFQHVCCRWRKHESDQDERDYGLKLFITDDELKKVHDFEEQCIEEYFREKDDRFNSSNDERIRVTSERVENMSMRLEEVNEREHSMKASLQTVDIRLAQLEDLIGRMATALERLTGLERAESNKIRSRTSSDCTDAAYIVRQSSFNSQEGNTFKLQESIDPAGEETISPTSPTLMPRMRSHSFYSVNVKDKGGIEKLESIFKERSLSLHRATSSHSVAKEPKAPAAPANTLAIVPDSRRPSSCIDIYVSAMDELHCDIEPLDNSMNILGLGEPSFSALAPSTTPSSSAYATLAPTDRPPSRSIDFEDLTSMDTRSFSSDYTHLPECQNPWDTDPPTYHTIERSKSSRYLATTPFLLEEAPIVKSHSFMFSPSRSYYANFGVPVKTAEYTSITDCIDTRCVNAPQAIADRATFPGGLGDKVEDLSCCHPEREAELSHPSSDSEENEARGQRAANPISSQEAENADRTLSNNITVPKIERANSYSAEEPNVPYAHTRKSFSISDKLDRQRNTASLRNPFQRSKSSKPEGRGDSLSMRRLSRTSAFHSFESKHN
# assayName: TRPM3 ion channel driven Ca2+ uptake (Fluo-4 AM assay, pregnenolone sulfate stimulated)
# Assay type: cell-based
# conditionsUsed: TRPM3 overexpressing flip-in HEK293 cells, channel opened with pregnenolone sulfate (PS) 50 μM, 2.4 mM Ca2+
pIC50: −log10 of the molar value.

Look over these answered cases.
Cc1cc2ccc(OCC(F)F)cn2c1C(=O)NC1CNCCC1(F)F (single isomer, unassigned) [Cpd 027 - En2] ... < 4.70
Cc1cc2ccc(OCc3ccccc3F)cn2c1C(=O)N[C@@H](C)C(N)=O ... > 6.00
Cc1cc2ccc(OCc3ccccn3)cn2c1C(=O)NC(C)C(N)=O (single isomer, unassigned) [Cpd 018 - En1] ... 4.70 to 6.00
Cc1cc2ccc(OCc3cccnc3)cn2c1C(=O)NC1(CO)CCNC1=O (single isomer, unassigned) [Cpd 037 - En1] ... > 6.00
Cc1cc2ccc(OCc3ccccn3)cn2c1C(=O)NC(C)(CO)CC(F)F (single isomer, unassigned) [Cpd 036 - En2] ... 4.70 to 6.00

GET /values?readout=pIC50&item= Cc1cc2ccc(OCc3ccccn3)cn2c1C(=O)NC(C)(CO)CO
> 6.00

Same question, Cc1cc2ccc(OCc3c(F)cnn3C)cn2c1C(=O)NC(CO)CC(F)(F)F (single isomer, unassigned) [Cpd 045 - En1] this time
4.70 to 6.00

Same question, Cc1cc2ccc(OCC3CC3)cn2c1C(=O)NC(C)(CO)C(N)=O (single isomer, unassigned) [Cpd 019 - En1] this time
> 6.00
